Measured values drawn from ChEMBL document CHEMBL1201862 for this set.

test system: LXFL 529; assay: NCI tumour cell line growth inhibition, 48 h
Active and inactive are the calls of the source. Cut-off read from the data, not from the text of the source: active = GI50 up to about 1.1 µM and inactive = higher.
# key: entry, value: GI50

Recorded results for 3 molecules are shown here.
C=CCN(N=O)C(=O)NCCCCC(NC(C)=O)C(=O)NCc1ccccc1 (stereo unspecified): > 100 µM (inactive)
O=CN/C=C/c1cccc(O)c1: > 100 µM (inactive)
CC(=O)N1C/C(=C\c2ccc(N(C)C)cc2)C(=O)/C(=C/c2ccc(N(C)C)cc2)C1: 64 µM (inactive)

Please list GI50 recorded for the molecule CC(=O)/C=C1/c2ccccc2N(C(C)=O)C1O (stereo unspecified) > 100 µM (inactive)

Please list GI50 recorded for the molecule O=C1C(c2ccc(Br)cc2)=[N+]([O-])c2ccccc21 5.16 µM (inactive)

Please list GI50 recorded for the molecule C=C(CN(C)C)C(=O)c1cc(C)ccc1C 1.62 µM (inactive)

Please list GI50 recorded for the molecule COc1ccccc1NC(=O)CC(=O)NNCC(=O)Nc1nnc(-c2ccccc2)o1 > 100 µM (inactive)

Please list GI50 recorded for the molecule Cc1cc(C)c(N)c(C)c1N > 100 µM (inactive)

Please list GI50 recorded for the molecule Cc1ns/c(=N\C(=S)N(C)C)n1C > 100 µM (inactive)

Please list GI50 recorded for the molecule NC(=S)N/N=C(\C(=O)Nc1cccc([N+](=O)[O-])c1)c1nc2ccc([N+](=O)[O-])cc2nc1O 71.1 µM (inactive)

Please list GI50 recorded for the molecule Nc1nc2c(ncn2C2OC(CO)C(O)C2N)c(=O)[nH]1 (stereo unspecified) > 100 µM (inactive)
